Source of measurements: the Deep4Chem optical property database

# test_description: solvent given as SMILES
# measurement_parameters: in C1COCCO1
Cut-off 400 nm on emission maximum: below means T, at or above means F.

Illustrative cases are given below, each with its answer.
Cc1oc2c(Cl)cc3c(C)cc(=O)oc3c2c1C; F
CN(c1ccccc1)c1ccc(/C=C2\C(=O)c3ccccc3S2(=O)=O)cc1; F
O=C1/C(=C2\Sc3ccc(S(=O)(=O)Nc4ccccc4)cc3C2=O)Sc2ccc(S(=O)(=O)Nc3ccccc3)cc21; F
CCN(CC)c1ccc2c(C#N)c(/C=C(\C#N)c3nc4ccccc4s3)c(=O)oc2c1; F
Fc1cc(-c2nc(-c3ccccc3)nc(-c3ccccc3)n2)ccc1-n1c2ccccc2c2c3c(ccc21)C1(c2ccccc2-c2ccccc21)c1ccccc1-3; F
F[B-]1(F)n2ccnc2-c2cccc[n+]21; T
c1ccc(-c2nc(-c3ccc(-c4nc(-c5ccccc5)c(-c5ccccc5)o4)cc3)oc2-c2ccccc2)cc1; F
N#Cc1cc(-c2ccc(F)cc2)cnc1O; F
N#Cc1ccc(C#Cc2ccc3ccc4ccc(C#Cc5ccc(C#N)cc5)c5ccc2c3c45)cc1; F
[C-]#[N+]c1ccc(-c2ccc(N)cc2)cc1; T

Task item: Is emission maximum strictly under 400 nm for the entry `CN(C)c1ccc(/C=C/c2nc3ccc(Br)cc3nc2-c2ccccc2)cc1` ?
Reply: F

Task item: Is emission maximum strictly under 400 nm for the entry `N#Cc1nc2cnc(N)nc2n1Cc1ccccc1` ?
Reply: T

Task item: Is emission maximum strictly under 400 nm for the entry `CN(C)c1ccc(C#Cc2ccc3ccc4c(C#Cc5ccc(N(C)C)cc5)ccc5ccc2c3c54)cc1` ?
Reply: F

###

Below, each entry is listed with its recorded emission maximum.
# test_description: solvent given as SMILES
# measurement_parameters: in CCO
Unit nm implied. Number only.

Below are worked cases with known answers.
CCN(CC)c1ccc2c(-c3ccc(S(=O)(=O)[O-])cc3S(=O)(=O)[O-])c3ccc(=[N+](CC)CC)cc-3oc2c1; 578
F[B-]1(F)n2cccc2C(c2c3ccccc3cc3ccccc23)=C2C=CC=[N+]21; 520
O=c1c2cc(F)c(O)cc2oc2cc(O)c(F)cc12; 439
COc1ccc2c(CC(=O)NN)coc2c1; 374
CCOc1ccc2c(-c3nc(-c4ccccc4F)no3)cc(=O)oc2c1; 465
Oc1ccccc1/N=C/c1ccccc1Oc1ccccc1; 408

Task item: # get_value(readout='emission maximum', item= `CC(=O)c1nc(-c2ccc(N(c3ccccc3)c3ccccc3)cc2)oc1C` )
Reply: 468

Task item: # get_value(readout='emission maximum', item= `CN(C)c1cccc2c1ccc1c(=O)oc(-c3ccc(C(F)(F)F)cc3)cc12` )
Reply: 602

Task item: # get_value(readout='emission maximum', item= `O=C1c2ccccc2C(=O)N1c1ccc(Cn2cncn2)cc1` )
Reply: 422

Task item: # get_value(readout='emission maximum', item= NS(=O)(=O)c1ccc(N2N=C(c3ccc(O)cc3)CC2c2ccc([N+](=O)[O-])cc2)cc1 (stereo not given) )
Reply: 422

Task item: # get_value(readout='emission maximum', item= `O=Cc1ccc(-c2ccc(-c3nc4ccccc4s3)c(O)c2)s1` )
Reply: 540

Task item: # get_value(readout='emission maximum', item= `CN(C)c1cc2c(cc1F)c(=O)c1cc(F)c(N3CCCCC3)cc1n2C` )
Reply: 443

Task item: # get_value(readout='emission maximum', item= `CCN(CC)c1ccc2c(-c3ccccc3C(=O)[O-])c3ccc(=[N+](CC)CC)cc-3oc2c1` )
Reply: 571

Task item: # get_value(readout='emission maximum', item= CCOC(=O)C1=C(C)NC2=C(C(=O)c3ccccc32)C1c1ccc(N(C)C)cc1 (stereo not given) )
Reply: 559

Task item: # get_value(readout='emission maximum', item= `N#CC1=c2cc3c4c(c2Oc2c1cc1c5c2CCCN5CCC1)CCC[N+]=4CCC3` )
Reply: 700

###

# test_description: solvent given as SMILES
# measurement_parameters: in Cc1ccccc1
metric: emission maximum (nm)
Unit nm implied. Number only.

Cc1cc(C)n2c1C=C1c3ccccc3C(c3[nH]c4ccccc4c3C)=[N+]1[B-]2(F)F; 636
N#Cc1cc(C#N)cc(-n2c3ccccc3c3cc(-c4ccc5c(c4)c4ccccc4n5-c4cc(C#N)cc(C#N)c4)ccc32)c1; 470
CCCCC(CC)Cn1c2ccc(C(=C(C#N)C#N)c3ccccc3)cc2c2c(-c3ccc(Br)cc3)c3c(c(-c4ccc(Br)cc4)c21)c1cc(C(=C(C#N)C#N)c2ccccc2)ccc1n3CC(CC)CCCC (centres undefined); 540
COc1ccc2c(c1)[nH]c1c3[nH]c4cc(OC)ccc4c3c3nsnc3c21; 501
CN(C)c1ccc(C2=Nc3scc(-c4ccc([N+](=O)[O-])cc4)[n+]3[B-](F)(F)O2)cc1; 447
CCCCCCCCc1ccc(-c2ccc(/C=C(\C#N)c3ccc(-c4cccc5cccc(-c6ccc(/C(C#N)=C/c7ccc(-c8ccc(CCCCCCCC)cc8)cc7)cc6)c45)cc3)cc2)cc1; 491

Task item: # get_value(readout='emission maximum', item= `O=Cc1nc2ccc(C#Cc3ccc(N(c4ccc(C#Cc5ccc6nc(C=O)sc6c5)cc4)c4ccc(C#Cc5ccc6nc(C=O)sc6c5)cc4)cc3)cc2s1` )
Reply: 500

Task item: # get_value(readout='emission maximum', item= `COc1ccccc1C1=[N+]2C(=Nc3c(-c4ccccc4)cc(-c4ccccc4OC)n3[B-]2(F)F)C(c2ccccc2)=C1` )
Reply: 688

Task item: # get_value(readout='emission maximum', item= `CN(C)c1ccc(C#Cc2ccc3ccc4c(C#Cc5ccc(N(C)C)cc5)ccc5ccc2c3c54)cc1` )
Reply: 483.7

###

# test_description: solvent given as SMILES
# measurement_parameters: in CC#N
metric: emission maximum

Below are worked cases with known answers.
O=S1c2ccc(-c3c4ccccc4cc4ccccc34)cc2-c2cc(-c3c4ccccc4cc4ccccc34)ccc21; 508.48 nm
Cc1ccc(C2=C3C=CC=[N+]3[B-](F)(F)n3cccc32)cc1; 514.5 nm

Task item: # get_value(readout='emission maximum', item= `O=c1c(Nc2ccccc2)c([O-])c1=[NH+]c1ccccc1` )
Reply: 496 nm

###

Below, each entry is listed with its recorded emission maximum.
# test_description: solvent given as SMILES
# measurement_parameters: in CCCCCC
Unit nm implied. Number only.

Below are worked cases with known answers.
COc1ccc2n1[B-](F)(F)[N+]1=CC=CC1=C2c1ccccc1; 514
CC(C)(C)c1ccc2c(c1)sc1[n+]2[B-](F)(F)n2c(c3cccc4cccc2c43)=N1; 504

Note: attention shifts to another entry.
Task item: # get_value(readout='emission maximum', item= `Cc1csc2[n+]1[B-](F)(F)n1c(c3cccc4cccc1c43)=N2` )
Reply: 488

###

# test_description: solvent given as SMILES
# measurement_parameters: in ClCCl
metric: emission maximum

Below are worked cases with known answers.
CC[C@H](C)COc1ccc(C2=C3C(C)=C(c4ccc5ccc6cccc7ccc4c5c67)C(C)=[N+]3[B-](F)(F)n3c(C)c(-c4ccc5ccc6cccc7ccc4c5c67)c(C)c32)cc1; 585 nm
CC(C)c1ccc2ccc3cccc4ccc1c2c34; 377 nm
c1ccc(N(c2ccccc2)c2ccc3c4cccc5c(N(c6ccccc6)c6ccccc6)ccc(c6cccc2c63)c54)cc1; 547 nm

Note: attention shifts to another entry.
Task item: # get_value(readout='emission maximum', item= `CC(C)(C)c1ccc2c(c1)c1cc(C(C)(C)C)ccc1n2-c1ccc(N(c2ccc(-c3ccc(-c4ccc(-c5ccc(-c6ccc(-c7ccc(N(c8ccc(-n9c%10ccc(C(C)(C)C)cc%10c%10cc(C(C)(C)C)ccc%109)cc8)c8ccc(-n9c%10ccc(C(C)(C)C)cc%10c%10cc(C(C)(C)C)ccc%109)cc8)cc7)s6)s5)s4)s3)cc2)c2ccc(-n3c4ccc(C(C)(C)C)cc4c4cc(C(C)(C)C)ccc43)cc2)cc1` )
Reply: 529 nm

###

Below, each entry is listed with its recorded emission maximum.
# test_description: solvent given as SMILES
# measurement_parameters: in CCOCC
Unit nm implied. Number only.

Below are worked cases with known answers.
CCn1c2ccccc2c2cc(/C=C/C(=O)c3ccc4c(c3)c3cc(C(=O)/C=C/c5ccc6c(c5)c5ccccc5n6CC)ccc3n4CC)ccc21; 475
Nc1ccc2c(c1)C(=O)O/C2=C\c1ccc(Cl)cc1; 427.17

Note: attention shifts to another entry.
Task item: # get_value(readout='emission maximum', item= `CC(=O)c1nc(-c2ccc(N(c3ccccc3)c3ccccc3)cc2)oc1C` )
Reply: 408

###

# test_description: solvent given as SMILES
# measurement_parameters: in OCC(F)(F)F
Cut-off 500 nm on emission maximum: below means satisfied, at or above means not satisfied.

Task item: Is emission maximum strictly under 500 nm for the entry `Cc1oc2c(Cl)cc3c(C)cc(=O)oc3c2c1C` ?
Reply: satisfied

Task item: Is emission maximum strictly under 500 nm for the entry `CCC1=C(C)C2=Cc3c(I)c(I)c(I)n3[B-](F)(F)[N+]2=C1C` ?
Reply: not satisfied

Task item: Is emission maximum strictly under 500 nm for the entry `N#Cc1ccc2cc[nH]c2c1` ?
Reply: satisfied
